Target: Rac GTPase-activating protein 1 (Homo sapiens)
Assay: blockers of MgcRacGAP-driven Rac1 GTP hydrolysis – biochemical, ADP Hunter fluorescence, primary and confirmatory, confirmation (AID 624330);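 also: fluorescence reports GDP produced by GAP-driven GTP hydrolysis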
Settings: MgcRacGAP-stimulated Rac1 GTP hydrolysis, at 30 µM, hits give high values, GST-tagged Rac1 F28L mutant substrate
About 2,100 (0.62%) of roughly 340,000 compounds were called active. These entries were drawn from the full list. Entries with a potency or affinity are not part of this list.
In this section, each of the compounds is paired with its reported inhibition.
readout: inhibition (%)

# compound, unitLabel, measValue
data = [
    ("Clc1cc(Br)ccc1OCCN1CCOCC1", "%", 24.7),
    ("Cc1cc(C)c(OCCOCCN2CCN(C)CC2)c(Cl)c1", "%", 22.7),
    ("COc1ccc(/C=N/NC(=O)c2nonc2N)cc1OC", "%", 11.7),
    ("Cc1nonc1C(=O)N/N=C/c1cc2c(cc1Br)OCO2", "%", -12.5),
    ("Cc1ccc(C)c(N)c1", "%", 6.49),
    ("CC1CCN(CCOCCOc2ccc(Br)cc2Cl)CC1", "%", 5.16),
    ("Cc1cc([N+](=O)[O-])ccc1N", "%", -7.8),
    ("O=C(CN(Cc1ccc(Cl)cc1)C(=O)CN1C(=O)COc2ccccc21)NC1CCCC1", "%", 8.29),
    ("CC(C)(C)c1ccccc1OCCOCCN1CCCCCC1", "%", -5.46),
    ("Cc1cc(Cl)c(OCCOCCN2CCC(C)CC2)c(Br)c1", "%", 21.9),
    ("Cc1ccc2c(N)c(C)ccc2c1", "%", 12.7),
    ("COc1cc(NC(N)=S)c(OC)cc1Cl", "%", 10.5),
    ("O=C(CCC1CCCN(C(=O)c2ccc3c(c2)OCO3)C1)NCc1ccc(F)c(F)c1 (stereo not drawn)", "%", 6.44),
]

====

In this section, each of the compounds is paired with its reported inhibition.
Target: Rac GTPase-activating protein 1 (Homo sapiens) (UniProt Q9H0H5)
Sequence (Q9H0H5 whole entry, looked up): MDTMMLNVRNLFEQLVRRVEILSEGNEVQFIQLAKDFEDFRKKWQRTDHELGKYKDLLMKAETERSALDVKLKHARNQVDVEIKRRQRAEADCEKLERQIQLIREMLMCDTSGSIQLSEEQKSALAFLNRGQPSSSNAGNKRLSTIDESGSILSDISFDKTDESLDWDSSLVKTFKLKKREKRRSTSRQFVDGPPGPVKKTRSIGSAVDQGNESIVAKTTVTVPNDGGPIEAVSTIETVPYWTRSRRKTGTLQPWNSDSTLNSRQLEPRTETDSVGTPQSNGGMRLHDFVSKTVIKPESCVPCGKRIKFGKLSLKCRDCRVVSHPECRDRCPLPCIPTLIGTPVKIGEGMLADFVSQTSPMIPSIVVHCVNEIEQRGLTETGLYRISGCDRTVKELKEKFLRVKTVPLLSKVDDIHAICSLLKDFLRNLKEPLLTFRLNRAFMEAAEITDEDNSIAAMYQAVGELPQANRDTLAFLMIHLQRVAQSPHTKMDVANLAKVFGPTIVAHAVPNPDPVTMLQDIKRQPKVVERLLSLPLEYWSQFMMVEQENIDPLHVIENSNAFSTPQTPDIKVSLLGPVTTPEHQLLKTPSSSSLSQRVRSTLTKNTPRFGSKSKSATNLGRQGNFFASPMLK
Assay: blockers of MgcRacGAP-driven Rac1 GTP hydrolysis – biochemical, ADP Hunter fluorescence, primary and confirmatory, confirmation (AID 624330);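 also: fluorescence reports GDP produced by GAP-driven GTP hydrolysis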
Conditions: MgcRacGAP-stimulated Rac1 GTP hydrolysis, at 30 µM, hits give high values, GST-tagged Rac1 F28L mutant substrate
Among all 340,000 compounds or so, about 2,100 (0.62%) were called active. These entries were drawn from the full list. Results with a measured potency or affinity are listed apart.
readout: inhibition (%)

# compound, readout, measValue
rows = [
    ("COc1ccc(CCNC(=S)Nc2ccccc2)cc1", "inhibition", 12.5),
    ("O=C(CCCc1c[nH]c2ccccc12)N[C@@H](Cc1c[nH]c2ccccc12)C(=O)O", "inhibition", 9.15),
    ("O=C(CSc1ncn[nH]1)Nc1ccc(Cl)c(Cl)c1", "inhibition", 12.3),
    ("O=C(Cc1cccs1)Nc1nnc(Cc2ccccc2)s1", "inhibition", 22.3),
    ("C/C(=N\\NC(=O)c1nnn(-c2nonc2N)c1CN1CCCCCC1)c1ccc(Br)cc1", "inhibition", -3.03),
    ("COC(=O)c1[nH]c2cc(OC)c(OC)cc2c1NC(=O)c1cccc(OC)c1", "inhibition", 10.8),
    ("CCC(=O)N1N=C(c2cccc(NS(C)(=O)=O)c2)CC1c1cccs1 (stereo unspecified)", "inhibition", 11.9),
    ("c1ccc(Cn2cc(-c3ccccc3)cn2)cc1", "inhibition", 6.79),
    ("C=CCN1C(=O)CS/C1=N\\N=C\\c1cccc([N+](=O)[O-])c1", "inhibition", 5.94),
    ("O=c1c2ccccc2nnn1CSc1ccccc1F", "inhibition", 8.16),
    ("c1ccc2c(c1)Nc1cc3ccccc3cc1O2", "inhibition", -1.21),
    ("O=C(NCc1nc2ccccc2[nH]1)c1cccc(S(=O)(=O)N2CCCCC2)c1", "inhibition", 1.53),
    ("CCc1ccc(N(CC(=O)Nc2ccc(OC)cc2OC)S(C)(=O)=O)cc1", "inhibition", 6.83),
    ("CC(CCN(C)C)OC(=O)c1ccc(C(C)c2ccccc2)o1 (stereo unspecified)", "inhibition", 1.78),
    ("O=C(N1CCOCC1)N1CCN(C(c2ccccc2)c2ccccc2)CC1", "inhibition", 5.11),
    ("CCOC(=O)c1nc(Nc2ccccc2)c2ccccc2n1", "inhibition", -2.22),
    ("O=C1NN(c2cccc(Br)c2)C(=O)/C1=C\\c1ccc(O)cc1", "inhibition", 14.5),
    ("CCOC(=O)c1[nH]c(C)c(C(=O)Nc2ccccc2C)c1C", "inhibition", 6.7),
    ("C=CCOC(=O)Nc1c(C(=O)OC)[nH]c2ccc(Cl)cc12", "inhibition", 0.34),
    ("CCOC(=O)c1[nH]c2ccccc2c1NC(=O)CC", "inhibition", -0.8),
    ("CC[C@]12c3[nH]c4cc(-c5ccco5)ccc4c3CCN1C(=O)[C@@H](CC(=O)NC/C=C(\\C)CCC=C(C)C)C[C@@H]2C(=O)N1CCN(C(=O)C2CC2)CC1", "inhibition", -1.48),
    ("O=C1NN(c2ccccc2)C(=O)C1=Cc1ccccc1", "inhibition", 13.7),
    ("COCC1CCCCN1C(=O)c1ccc(OC2CCN(CCc3ccccc3)CC2)cc1 (stereo unspecified)", "inhibition", 10.2),
    ("CNCc1c(C)nn(-c2ccccc2)c1C", "inhibition", 8.94),
    ("Cc1cc(C)nc(NC(=NCCc2c[nH]c3ccccc23)NC(=O)Nc2cccc([N+](=O)[O-])c2)n1", "inhibition", 8.14),
    ("CCOC(=O)c1[nH]c2ccccc2c1NC(=O)C(C)(C)C", "inhibition", 5.02),
    ("COc1cccc(NC(=O)COc2ncnc3sc(C)c(C)c23)c1", "inhibition", 5.65),
    ("COC(=O)c1[nH]c2ccccc2c1NC(=O)c1c(F)cccc1F", "inhibition", -14.4),
    ("N#Cc1c(/N=C/c2cc(Br)cs2)sc2c1CCC2", "inhibition", 14.5),
    ("CCc1cc(=O)oc2c(C)c(OC(C)C(=O)NCC3CCC(C(=O)O)CC3)ccc12 (stereo unspecified)", "inhibition", 0.46),
    ("CCCNC(=O)NC(=O)COC(=O)CNS(=O)(=O)/C=C/c1ccccc1", "inhibition", 6.44),
    ("Cc1ccc(S(=O)(=O)N2CCN(C(=O)Cc3ccc4c(c3)OCCO4)CC2)cc1C", "inhibition", 6.6),
    ("CC(=O)NC1C(=O)N(CC(C)C)c2ccccc21 (stereo unspecified)", "inhibition", 4.92),
    ("Cc1cccc2sc(N(CCN(C)C)C(=O)c3ccc4ccccc4c3)nc12", "inhibition", 5.08),
    ("CN1C(=O)NC(c2ccc(O)cc2)C2=C1CN(c1ccccc1)C2=O (stereo unspecified)", "inhibition", 10.4),
    ("Cc1cccc(OC(C)C(=O)Nc2nc(-c3ccncc3)cs2)c1 (stereo unspecified)", "inhibition", 5.11),
    ("CC(=O)CC(=O)Nc1ccc(Cl)cn1", "inhibition", 4.78),
    ("COc1cccc(/C=C2/C(=O)NN(c3ccc(Br)cc3)C2=O)c1O", "inhibition", 13.4),
    ("COc1ccc(N2CCN(CC(=O)c3c[nH]c4ccccc34)CC2)cc1", "inhibition", -4.34),
    ("COc1cc(OC)cc(C(=O)NCCCN2CCOCC2)c1", "inhibition", 5.65),
    ("CCOC(=O)c1[nH]c2ccccc2c1NC(C)=O", "inhibition", 2.46),
    ("Cc1cc(Br)ccc1NCc1ccccn1", "inhibition", 23.4),
    ("Cc1ccc(N2CC3=C(C2=O)C(c2ccccc2)NC(=O)N3C)cc1 (stereo unspecified)", "inhibition", 6.8),
    ("CCOCC(=O)Nc1ccc(-c2cn3cccnc3n2)cc1", "inhibition", 1.23),
    ("O=C(Nc1ccccc1C(=O)Nc1ccc(F)cc1)c1ccco1", "inhibition", 6.4),
    ("CCCCNC(=O)Nc1c(C(=O)OCC)[nH]c2ccccc12", "inhibition", 5.71),
]

====

Biological target: Rac GTPase-activating protein 1 (Homo sapiens) (UniProt Q9H0H5)
Experiment: blockers of MgcRacGAP-driven Rac1 GTP hydrolysis – biochemical, ADP Hunter fluorescence, primary and confirmatory, confirmation (AID 624330);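 also: fluorescence reports GDP produced by GAP-driven GTP hydrolysis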
Details: MgcRacGAP-stimulated Rac1 GTP hydrolysis, at 30 µM, hits give high values, GST-tagged Rac1 F28L mutant substrate
Screen size: about 340,000 compounds; about 2,100 (0.62%) were called active. Only a sample is shown. Potency and affinity values are given separately.

# compound, unitLabel, inhibition
rows = [
    ("COc1cc(/C=N/NC(=O)c2cccc(S(=O)(=O)N3CCCCC3)c2)cc(Br)c1O", "%", 18.1),
    ("Cc1ccc(NC(=O)C(C)N2CCCC2)cc1Cl (stereo unspecified)", "%", 13.2),
    ("Cc1cnc(NC(=O)[C@H](C)N2C(=O)C3CCCCC3C2=O)s1 (stereo partly specified)", "%", 1.01),
    ("COc1ccccc1CN1CC(C(=O)NCC2(O)CCCCC2)CCC1=O (stereo unspecified)", "%", -29.3),
    ("CC(=O)c1ccc(N2CCN(C(C)C(=O)Nc3ccc4c(c3)OCCO4)CC2)cc1 (stereo unspecified)", "%", -0.86),
    ("CCC(O)CNC(=O)NC(=C(Cl)Cl)c1ccc(C)c(F)c1 (stereo unspecified)", "%", -0.09),
    ("CN1CCN(CCC(=O)Nc2ccc(F)c(F)c2)CC1", "%", 2.01),
    ("CNC(=O)CSc1nc2sccc2c(=O)n1-c1ccccc1", "%", 4.24),
    ("CCCC(c1nnnn1CCOC)N(Cc1cc2cc(C)c(C)cc2[nH]c1=O)CC1CCCO1 (stereo unspecified)", "%", 1.47),
    ("COc1ccc(-n2nnnc2SCC(=O)N2CCN(C(=O)c3ccco3)CC2)cc1OC", "%", 7.68),
    ("O=C(CN1CCc2ccccc2C1)Nc1ccccc1Cl", "%", 9.11),
]
